Below, each entry is listed alongside its reported absorption maximum.
- Test name: solvent given as SMILES
- Assay context: in O

| Compound structure | Units of measure | absorption maximum |
| --- | --- | --- |
| CC[n+]1c(-c2ccccc2)c2cc(NC(N)=[NH2+])ccc2c2ccc(NC(N)=[NH2+])cc21 | nm | 397 |
| COCCOc1cc(C=O)c(OCCOC)cc1C=O | nm | 391 |
| CC[N+]1(CC)CN2C(=N1)C(C(=O)O)=Cc1cc(OC)ccc12 | nm | 394 |
| Clc1ccc2cc3cccc[n+]3cc2c1 | nm | 400 |
| CCCCCn1c2ccc(S(=O)(=O)O)cc2c(=O)c2cc(S(=O)(=O)O)ccc21 | nm | 406 |
